protein stability index reference
Experiment: protein stability index of a GFP-peptide fusion (GPS, HEK-293T) (PSI 1-6); higher = more stable;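 also: 24-mer peptide tiles fused after GFP, lentivirally expressed, FACS-sorted into six equal bins by GFP/DsRed ratio, decoded by Illumina sequencing, PSI is the read-weighted mean bin number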
Conditions: treatment: DMSO; c terminus: a fixed tail appended
# output: bare number, no unit

{"columns": ["BIOSEQUENCE", "protein stability index"],
 "data": [
  ["GCLAEAVSVIQSIPIFNETGRFSF [HACD3]", 2.91],
  ["TIGVEFATRSIQVDGKTIKAQIWD [RAB11A]", 3.04]
]}

Next sequence, protein stability index to be filled in.
# input Which protein stability index is listed for RGGGDPWTNGSGLALCQRYYHRGH [MCOLN1] ?
# output 3.08
